Property: protein stability index; scope: individual variants
B1: EFHC1 (parent)
chain: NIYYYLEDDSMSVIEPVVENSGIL

- Variants of: B1
- assay_text: protein stability index of a GFP-peptide fusion (GPS, HEK-293T) (PSI 1-6); higher = more stable;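 also: lentivirally expressed fusions sorted by FACS into six bins by GFP to DsRed ratio, PSI derived from sequencing read proportions per bin multiplied by bin number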
- reported_conditions: c terminus: a fixed tail appended
Field format: numeric only.

{"columns": ["mutant_code", "observable", "value_reported"],
 "data": [
  ["P16Y", "protein stability index", 1.42]
]}

Prompt line: Return protein stability index (reported value) for this variant: `E15F`
Response line: 2.48

Prompt line: Return protein stability index (reported value) for this variant: `I14P`
Response line: 3.08

Prompt line: Return protein stability index (reported value) for this variant: `N1L`
Response line: 1.92

Prompt line: Return protein stability index (reported value) for this variant: `M11W`
Response line: 1.76

Prompt line: Return protein stability index (reported value) for this variant: `N1E`
Response line: 2.48

Prompt line: Return protein stability index (reported value) for this variant: `D9G`
Response line: 2.12

Prompt line: Return protein stability index (reported value) for this variant: `D9Q`
Response line: 2.88

Prompt line: Return protein stability index (reported value) for this variant: `L6R`
Response line: 2.93

Prompt line: Return protein stability index (reported value) for this variant: `L24F`
Response line: 2.12

Prompt line: Return protein stability index (reported value) for this variant: `E19F`
Response line: 1.89

The reported measurements were obtained from the supplement of paper PMC10567573.
